Source of measurements: ChEMBL document CHEMBL4390671

# experimental-target: Cyclin-dependent kinase 2 (Homo sapiens, UniProt P24941)
measurement-name: Kd (µM)
The reply should contain only the number, in µM.

Query string: What Kd value was documented for this compound, Nc1nc(-c2cccc(CC(=O)O)c2)c2nc[nH]c2n1 ?
Result string: 50
